Cited source: ChEMBL document CHEMBL4177653

- Tested on: HeLa
- assayRemarks: Antiproliferative activity against human HeLa cells after 72 hrs by MTT assay
- Format: functional, cell-based
Provide the recorded IC50 for the entries that follow.

Q) Would you kindly share the measured IC50 for Cc1nc([N+](=O)[O-])cn1C/C(=N/OC(=O)c1cccnc1Cl)c1ccc(Br)cc1 ?
A) 1.28 µg/mL

Q) Would you kindly share the measured IC50 for Cc1ccccc1C(=O)O/N=C(/Cn1cc([N+](=O)[O-])nc1C)c1ccc(Br)cc1 ?
A) 9.76 µg/mL

Q) Would you kindly share the measured IC50 for Cc1nc([N+](=O)[O-])cn1C/C(=N/OC(=O)c1ccccc1Br)c1ccc(Br)cc1 ?
A) > 20 µg/mL

Q) Would you kindly share the measured IC50 for COc1ccccc1C(=O)O/N=C(/Cn1cc([N+](=O)[O-])nc1C)c1ccc(Br)cc1 ?
A) > 20 µg/mL

Q) Would you kindly share the measured IC50 for Cc1nc([N+](=O)[O-])cn1C/C(=N/OC(=O)c1cccc(F)c1)c1ccc(Br)cc1 ?
A) 4.55 µg/mL

Q) Would you kindly share the measured IC50 for Cc1nc([N+](=O)[O-])cn1C/C(=N/OC(=O)c1ccccc1[N+](=O)[O-])c1ccc(Br)cc1 ?
A) 11.3 µg/mL

====

Provide the recorded IC50 for the entries that follow.
- Test system: HeLa
- assayRemarks: Antiproliferative activity against human HeLa cells after 72 hrs by MTT assay
- Type: functional, cell-based

Q) Would you kindly share the measured IC50 for Cc1nc([N+](=O)[O-])cn1C/C(=N/OC(=O)c1ccc([N+](=O)[O-])cc1)c1ccc(Br)cc1 ?
A) 12.4 µg/mL

Q) Would you kindly share the measured IC50 for Cc1nc([N+](=O)[O-])cn1C/C(=N/OC(=O)c1ccc(Cl)cc1)c1ccc(Br)cc1 ?
A) 8.79 µg/mL

Q) Would you kindly share the measured IC50 for COc1ccc(C(=O)O/N=C(/Cn2cc([N+](=O)[O-])nc2C)c2ccc(Br)cc2)cc1 ?
A) 6.54 µg/mL

Q) Would you kindly share the measured IC50 for Cc1nc([N+](=O)[O-])cn1C/C(=N/OC(=O)c1cccc(Br)c1)c1ccc(Br)cc1 ?
A) 2.57 µg/mL

Q) Would you kindly share the measured IC50 for Cc1nc([N+](=O)[O-])cn1C/C(=N/OC(=O)c1ccc(Br)cc1)c1ccc(Br)cc1 ?
A) 5.67 µg/mL

Q) Would you kindly share the measured IC50 for Cc1ccc(C(=O)O/N=C(/Cn2cc([N+](=O)[O-])nc2C)c2ccc(Br)cc2)cn1 ?
A) 0.86 µg/mL

Q) Would you kindly share the measured IC50 for Cc1nc([N+](=O)[O-])cn1C/C(=N/OC(=O)c1cccnc1)c1ccc(Br)cc1 ?
A) 1.51 µg/mL

Q) Would you kindly share the measured IC50 for Cc1nc([N+](=O)[O-])cn1C/C(=N/OC(=O)c1ccccc1)c1ccc(Br)cc1 ?
A) > 20 µg/mL

Q) Would you kindly share the measured IC50 for Cc1nc([N+](=O)[O-])cn1C/C(=N\O)c1ccc(Br)cc1 ?
A) > 20 µg/mL
